assay: Cytotoxicity against HONE1-EBV, CCK-8 method; format: cell-based, human; details: CCK-8, OD at 450 nm, 72 h, average values of three parallel experiments
measuredParameter: IC50 (µM)
Express your answer in µM, writing the number without its unit.

Please give the measured IC50 for this compound: CCCCCCCC[C@H](C)[C@@H]1CC(=O)NCC(=O)N[C@@H](C(C)C)C(=O)N[C@H](CC(C)C)C(=O)N[C@@H](C)C(=O)N[C@@H](C(C)C)C(=O)O1 [Compound 4, Scopularide I]
10.1
